- Test system: NHBE cells
- experimentalDetails: Biolog metabolic array: substrate use by NHBE cells with or without CA09 infection
- Format: cell-based, human
- details: Virus: CA09-infected NHBE cells, MOI 1; Biolog PMM2; 2 hr
Could you label it 1 if measured 590 nm absorbance normalized to zero hour (substrate use), 2 hr is 2 or higher, and -1 otherwise?

# example entries with known answers
compound	group
CO[C@H]1O[C@H](CO)[C@@H](O)[C@H](O)[C@@H]1O [a-Methyl-D-Mannoside]	-1
CC(O)C(C)O (stereo not drawn)	-1

Query: Is 590 nm absorbance normalized to zero hour (substrate use), 2 hr for "NCCCC(=O)O" at or above 2?
Result: 1

Query: Tell me whether 590 nm absorbance normalized to zero hour (substrate use), 2 hr is at least 2 here: "C[C@H](O)[C@H](O)[C@@H](O)[C@@H](O)C=O"
Result: -1

Query: # check: 590 nm absorbance normalized to zero hour (substrate use), 2 hr of "OC[C@H]1O[C@@H]2O[C@H]3[C@H](O)[C@@H](O)[C@@H](O[C@H]4[C@H](O)[C@@H](O)[C@@H](O[C@H]5[C@H](O)[C@@H](O)[C@@H](O[C@H]6[C@H](O)[C@@H](O)[C@@H](O[C@H]7[C@H](O)[C@@H](O)[C@@H](O[C@H]1[C@H](O)[C@H]2O)O[C@@H]7CO)O[C@@H]6CO)O[C@@H]5CO)O[C@@H]4CO)O[C@@H]3CO" is greater than or equal to 2
Result: 1

Query: Hi, just wondering whether CC(O)CO (stereo not drawn) shows 590 nm absorbance normalized to zero hour (substrate use), 2 hr of 2 or higher.
Result: 1

Query: Record OC[C@H]1OC(O)[C@@H](O)[C@@H](O)[C@@H]1O (stereo partly drawn) ; criterion: 590 nm absorbance normalized to zero hour (substrate use), 2 hr no lower than 2. Met?
Result: 1

Query: Does the reported 590 nm absorbance normalized to zero hour (substrate use), 2 hr for "O=C[C@@H](O)[C@H](O)[C@H](O)CO" fall at or above the 2 mark?
Result: -1

Query: Does the reported 590 nm absorbance normalized to zero hour (substrate use), 2 hr for OC[C@@H]1OC(O)[C@@H](O)[C@H](O)[C@H]1O (stereo partly drawn) fall at or above the 2 mark?
Result: -1

###

- Test system: CA09
- experimentalDetails: microbe, parasite or virus in culture
- Type: cell-based, influenza virus H1N1 strain A/CA/04/2009
- details: NHBE, read-out: TCID50 (per mL)
assayReadout: log reduction at 10 µM
The answer should be written as a number, with no unit following it.

Query: Quick one: log reduction at 10 µM for CCc1ccc(CCOc2ccc(CC3SC(=O)NC3=O)cc2)nc1 (centres unmarked) ?
Result: 0.73

Query: Requested field: log reduction at 10 µM. Item: "O=C(CO)[C@@H](O)[C@@H](O)[C@H](O)[C@H](O)CO"
Result: 0.4

Query: For the molecule shown here, "O=C(O)c1nn(Cc2ccc(Cl)cc2Cl)c2ccccc12" , give the reported log reduction at 10 µM.
Result: 0.18

Query: Recorded log reduction at 10 µM for "C=C(C)[C@@H]1CC[C@]2(C(=O)O)CC[C@]3(C)[C@H](CC[C@@H]4[C@@]5(C)CC[C@H](O)C(C)(C)[C@@H]5CC[C@]43C)[C@@H]12" , please?
Result: 0.61

Query: Looking for the measured log reduction at 10 µM of "Cn1cncc1[C@@](N)(c1ccc(Cl)cc1)c1ccc2c(c1)c(-c1cccc(Cl)c1)cc(=O)n2C" , can you help?
Result: 1.4

Query: For the molecule "CC(C)c1nc(N(C)S(C)(=O)=O)nc(-c2ccc(F)cc2)c1/C=C/[C@@H](O)C[C@@H](O)CC(=O)O" , what log reduction at 10 µM is on record?
Result: 0.79

Query: So what does the record say about log reduction at 10 µM for "Nc1cc(C(F)(F)F)c(-c2cc(N3CCOCC3)nc(N3CCOCC3)n2)cn1" ?
Result: 0.07

###

Parameter: 590 nm absorbance normalized to zero hour (substrate use), 9 hr. Scope: all listed entries.
- Tested on: NHBE cells
- experimentalDetails: Biolog metabolic array: substrate use by NHBE cells with or without CA09 infection
- Type: cell-based, human
- details: Control (uninfected) NHBE cells, 9 hr
Field format: numeric only.

# example entries with known answers
compound	measuredValue
NC(=O)CCC(=O)O	0.54
N[C@@H](C(=O)O)[C@@H](O)[C@H](O)[C@H](O)CO	0.98
CC(O)CO (centres unmarked)	1.22
OC[C@H]1O[C@H](O[C@H]2[C@H](O)[C@@H](O)[C@H](O)O[C@@H]2CO)[C@H](O)[C@@H](O)[C@@H]1O	1.97
OCc1ccccc1O[C@@H]1O[C@H](CO)[C@@H](O)[C@H](O)[C@H]1O	0.66

Query: What value of 590 nm absorbance normalized to zero hour (substrate use), 9 hr on NHBE cells does CC[C@H](O)C(=O)O (racemic) [D,L-a-Hydroxy-Butyric Acid] have?
Result: 1.79

Query: # query: 590 nm absorbance normalized to zero hour (substrate use), 9 hr | item "CCCCCC(=O)O" | system: NHBE cells
Result: 4.10

Query: Identify the measured 590 nm absorbance normalized to zero hour (substrate use), 9 hr of CO[C@@H]1OC[C@@H](O)[C@H](O)[C@H]1O [b-Methyl-D-Xyloside] for NHBE cells.
Result: 2.33

Query: Could you share what 590 nm absorbance normalized to zero hour (substrate use), 9 hr was measured for "C[C@@H](O)[C@H](O)[C@H](O)[C@@H](O)C=O" , tested on NHBE cells?
Result: 2.69

Query: # query: 590 nm absorbance normalized to zero hour (substrate use), 9 hr | item CO[C@@H]1O[C@H](CO)[C@@H](O)[C@H](O)[C@H]1O [b-Methyl-D-Glucoside] | system: NHBE cells
Result: 3.33

Query: Find 590 nm absorbance normalized to zero hour (substrate use), 9 hr (NHBE cells) for the entry "OC[C@@H](O)[C@@H](O[C@@H]1O[C@H](CO)[C@H](O)[C@H](O)[C@H]1O)[C@H](O)[C@@H](O)CO"
Result: 0.50

Query: Recall the recorded 590 nm absorbance normalized to zero hour (substrate use), 9 hr for "O=C(O)CC(O)(CC(=O)O)C(=O)O" with NHBE cells and state it.
Result: 1.05

Query: Enter reported 590 nm absorbance normalized to zero hour (substrate use), 9 hr observed with NHBE cells for "CC(=O)C(=O)O"
Result: 1.71

Query: Provide the documented 590 nm absorbance normalized to zero hour (substrate use), 9 hr with NHBE cells as the system for "O=C[C@H](O)[C@@H](O)[C@@H](O)CO"
Result: 4.05

Query: API: value(readout=590 nm absorbance normalized to zero hour (substrate use), 9 hr, system=NHBE cells) for record "O=C[C@H](O)[C@@H](O)[C@H](O)[C@H](O)C(=O)O"
Result: 1.90

Query: Lookup: 590 nm absorbance normalized to zero hour (substrate use), 9 hr / NHBE cells / "O=C(O)CCC(=O)C(=O)O"
Result: 1.80

Query: Report 590 nm absorbance normalized to zero hour (substrate use), 9 hr for O=P(O)(O)OC[C@H](O)CO (racemic) [D,L-a-Glycerol Phosphate] tested on NHBE cells.
Result: 0.91

Query: Under NHBE cells: 590 nm absorbance normalized to zero hour (substrate use), 9 hr value of "NCCO" ?
Result: 1.03

Query: Record lookup: for NHBE cells, what 590 nm absorbance normalized to zero hour (substrate use), 9 hr belongs to "OC[C@@]12OC[C@@H](O1)[C@@H](O)[C@@H](O)[C@@H]2O" ?
Result: 0.82

Query: Test system NHBE cells; read-out 590 nm absorbance normalized to zero hour (substrate use), 9 hr; what value for C[C@@H]1OC(O)[C@@H](O)[C@H](O)[C@@H]1O (some centres unmarked) ?
Result: 0.26

###

- System: NHBE cells
- experimentalDetails: Biolog metabolic array: substrate use by NHBE cells with or without CA09 infection
- Type: cell-based, human
- details: Control (uninfected) NHBE cells, Biolog PMM2, 7 hr
Substrate use, 590 nm absorbance normalized to zero hour, 7 hr less than 2 is met; Substrate use, 590 nm absorbance normalized to zero hour, 7 hr greater than or equal to 2 is not met.

Example entries and their recorded answers appear below.
compound	group
O=C(CO)[C@@H](O)[C@H](O)[C@@H](O)CO	not met
C[C@H](O)[C@H](O)[C@@H](O)[C@@H](O)C=O	met
OC[C@H]1O[C@@H](O[C@H]2[C@H](O)[C@@H](O)[C@@H](O)O[C@@H]2CO)[C@H](O)[C@@H](O)[C@H]1O	met

Query: Lab note: Substrate use, 590 nm absorbance normalized to zero hour, 7 hr threshold 2. Does this compound come in strictly under it? OCC1OC(OC2C(CO)OC(OC3C(CO)OC(O)C(O)C3O)C(O)C2O)C(O)C(O)C1O (stereo not shown)
Result: not met

Query: Below 2 on Substrate use, 590 nm absorbance normalized to zero hour, 7 hr? Entry "N[C@@H](C(=O)O)[C@@H](O)[C@H](O)[C@H](O)CO"
Result: met

Query: Criterion: Substrate use, 590 nm absorbance normalized to zero hour, 7 hr strictly below 2. Is it met by CC(O)CO (stereo not shown) ?
Result: met

The origin of these recorded values is patent US11083725B2.
